Reported log10 IC50 values are given for each entry in this list.
molecular target: calpain II (m calpain) (Homo sapiens); test: BODIPY-casein fluorescence-based enzyme assay, calpain II / m-calpain; assay type: biochemical; details: BODIPY-casein substrate, Table 2; read-out: IC50 calpain II (m calpain)
Sequence (P17655 whole entry, species assumed): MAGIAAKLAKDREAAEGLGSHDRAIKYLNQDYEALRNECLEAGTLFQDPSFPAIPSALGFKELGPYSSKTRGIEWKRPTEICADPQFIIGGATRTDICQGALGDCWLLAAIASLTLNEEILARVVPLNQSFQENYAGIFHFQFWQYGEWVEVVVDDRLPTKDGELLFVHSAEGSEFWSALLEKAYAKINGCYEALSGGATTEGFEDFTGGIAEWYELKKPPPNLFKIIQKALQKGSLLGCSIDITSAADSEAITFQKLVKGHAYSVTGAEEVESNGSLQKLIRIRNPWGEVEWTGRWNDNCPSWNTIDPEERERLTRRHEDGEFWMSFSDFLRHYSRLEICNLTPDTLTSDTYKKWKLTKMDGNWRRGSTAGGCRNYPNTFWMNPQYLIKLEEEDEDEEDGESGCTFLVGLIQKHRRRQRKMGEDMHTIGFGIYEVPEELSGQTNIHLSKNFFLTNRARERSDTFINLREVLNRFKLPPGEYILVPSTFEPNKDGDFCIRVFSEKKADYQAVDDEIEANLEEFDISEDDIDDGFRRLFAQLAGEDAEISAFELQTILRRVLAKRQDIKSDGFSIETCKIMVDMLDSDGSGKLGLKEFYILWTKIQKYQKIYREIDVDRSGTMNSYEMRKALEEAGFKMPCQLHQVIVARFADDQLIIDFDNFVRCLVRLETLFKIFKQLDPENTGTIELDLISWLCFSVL
Sequence (P04632 whole entry partner, species assumed): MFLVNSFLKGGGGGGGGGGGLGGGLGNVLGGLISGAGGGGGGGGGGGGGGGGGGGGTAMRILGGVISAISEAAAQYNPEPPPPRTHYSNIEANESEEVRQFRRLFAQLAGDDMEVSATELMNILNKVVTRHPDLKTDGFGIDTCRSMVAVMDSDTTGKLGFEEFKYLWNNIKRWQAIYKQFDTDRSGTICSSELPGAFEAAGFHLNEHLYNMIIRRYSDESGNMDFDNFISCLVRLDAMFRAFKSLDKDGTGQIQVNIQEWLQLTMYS
Values below are the log10 of the recorded IC50, with nM as the unit.

[ask] Look up log10 IC50: CC(C)C[C@@H]1NC(=O)[C@@H](NC(=O)OCc2ccccc2)Cc2ccc(cc2)OCCCC[C@@H](CO)NC1=O [Compound 8]
[reply] 2.85

[ask] Look up log10 IC50: CC(C)C[C@@H]1NC(=O)[C@@H](NC(=O)OCc2ccccc2)Cc2ccc(cc2)OCCCCC[C@@H](CO)NC1=O [Compound 27]
[reply] 3.04

[ask] Look up log10 IC50: CC(C)C[C@@H]1NC(=O)[C@@H](NC(=O)OCc2ccccc2)Cc2ccc(cc2)OCCCC[C@@H](C(O)C#N)NC1=O (stereo partly drawn) [Compound 80]
[reply] 3.95

[ask] Look up log10 IC50: CC(C)C[C@@H]1NC(=O)[C@@H](NC(=O)OCc2ccccc2)Cc2ccc(cc2)OCCCCC[C@@H](C=O)NC1=O [Compound 28]
[reply] 2.26

[ask] Look up log10 IC50: CC(C)C[C@@H]1NC(=O)[C@@H](NC(=O)OCc2ccccc2)Cc2ccc(cc2)OCCCC[C@@H](C=O)NC1=O [Compound 9]
[reply] 1.48
